# System: 817829-284-R-J1-PDC complex spheroids, viability
# measurementDescription: Anticancer human tumor 817829-284-R-J1-PDC patient-derived colon adenocarcinoma cell line growth inhibition [GQUAD]; active means viability on the fitted dose curve at most 10% of control; inactive means the rest
# measurementContext: second compound 10 µM; first compound 0.0316 µM
Mark one answer only. Choices: active, inactive

compound	group
CC[C@@]1(O)C(=O)OCc2c1cc1n(c2=O)Cc2cc3c(CN(C)C)c(O)ccc3nc2-1 + Cc1cnc(CNC(=O)c2c(=O)c3ccc(N4CCCN(C)CC4)nc3n3c2sc2ccccc23)cn1	active
COc1ccc([C@@H](O)c2cc(-c3ncnc4cc(N5CCOCC5)ccc34)c(F)cc2Cl)nn1 + Cc1[nH]c2ccc(F)cc2c1-c1nc2c3cccnc3c3ncccc3c2[nH]1	inactive
Cc1cccc(N(C)C(=O)C2C(O)CCN2c2nc(C)cc(C(F)(F)F)c2C#N)c1 (stereo not given) + Cc1cnc(CNC(=O)c2c(=O)c3ccc(N4CCCN(C)CC4)nc3n3c2sc2ccccc23)cn1	active
COc1cccc2c1C(=O)c1c(O)c3c(c(O)c1C2=O)CC(O)(C(=O)CO)CC3OC1CC(N)C(O)C(C)O1 (stereo not given) + Cc1cnc(CNC(=O)c2c(=O)c3ccc(N4CCCN(C)CC4)nc3n3c2sc2ccccc23)cn1	active

Hi, sorry to bother you, what did the test record for CC(C)(O)C1CCC(Nc2ccc3ncc(-c4cccc(C(F)(F)F)c4)n3n2)CC1 (stereo not given) + CN(C)c1ccc(Nc2c3ccc(NC(=O)CCN4CCCC4)cc3nc3cc(NC(=O)CCN4CCCC4)ccc23)cc1 ? inactive

----------
# viability, T/C values compiled below
# System: 817829-284-R-J1-PDC complex spheroids, viability
# measurementDescription: Anticancer human tumor 817829-284-R-J1-PDC cell line growth inhibition [GQUAD];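 further: spheroids exposed to agents for 7 days before readout; percent viability relative to DMSO vehicle control taken as 100%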
# measurementContext: second compound 10 µM; first compound 0.0316 µM; hits give low values
Respond with the bare value in %.

molecule	viability, T/C (%)
CC(C)(O)C1CCC(Nc2ccc3ncc(-c4cccc(C(F)(F)F)c4)n3n2)CC1 (configuration not stated) + Cc1cnc(CNC(=O)c2c(=O)c3ccc(N4CCCN(C)CC4)nc3n3c2sc2ccccc23)cn1	0.11

Query: viability, T/C; subject: CC(=O)O[C@H]1C(=O)[C@@]2(C)[C@H]([C@H](OC(=O)c3ccccc3)[C@]3(O)C[C@H](OC(=O)[C@H](O)[C@@H](NC(=O)c4ccccc4)c4ccccc4)C(C)=C1C3(C)C)[C@]1(OC(C)=O)CO[C@@H]1C[C@@H]2O + CN(C)c1ccc(Nc2c3ccc(NC(=O)CCN4CCCC4)cc3nc3cc(NC(=O)CCN4CCCC4)ccc23)cc1 10.1

----------
viability, T/C values for the molecules below.
# System: 817829-284-R-J1-PDC complex spheroids, viability
# measurementDescription: Anticancer human tumor 817829-284-R-J1-PDC cell line growth inhibition [GQUAD];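 further: spheroids exposed to agents for 7 days before readout; percent viability relative to DMSO vehicle control taken as 100%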
# measurementContext: second compound 0.0316 µM; first compound 0.0316 µM; hits give low values
Field: numeric (%). Do not append units.

molecule	viability, T/C, %
CC(C)n1c(=O)n(C)c2cnc3cc(F)c(-c4ccc(OCCCN5CCCCC5)nc4)cc3c21 + Cc1[nH]c2ccc(F)cc2c1-c1nc2c3cccnc3c3ncccc3c2[nH]1	120
COc1ccc([C@@H](O)c2cc(-c3ncnc4cc(N5CCOCC5)ccc34)c(F)cc2Cl)nn1 + Cc1cnc(CNC(=O)c2c(=O)c3ccc(N4CCCN(C)CC4)nc3n3c2sc2ccccc23)cn1	81.7
Nc1ccn(C2OC(CO)C(O)C2(F)F)c(=O)n1 (stereo not given) + Cc1cnc(CNC(=O)c2c(=O)c3ccc(N4CCCN(C)CC4)nc3n3c2sc2ccccc23)cn1	17.2
Cc1cccc(N(C)C(=O)C2C(O)CCN2c2nc(C)cc(C(F)(F)F)c2C#N)c1 (stereo not given) + CN(C)c1ccc(Nc2c3ccc(NC(=O)CCN4CCCC4)cc3nc3cc(NC(=O)CCN4CCCC4)ccc23)cc1	101

Item under review: C#Cc1c(F)ccc2cc(O)cc(-c3ncc4c(N5CC6CCC(C5)N6)nc(OCC56CCCN5CC(F)C6)nc4c3F)c12 (stereo not given) + Cc1[nH]c2ccc(F)cc2c1-c1nc2c3cccnc3c3ncccc3c2[nH]1 . Reported viability, T/C? 96.1

Value source: PubChem BioAssay AID2060503
